- assay-explanation: Cytotoxicity against human HEp2 cells
- Assay type: cell-based, HEp-2
# key: entry, value: CC50

[
  {
    "chemical-string": "C=C(C)n1c(=O)n(Cc2nc3cc(/C(N)=N\\O)ccc3n2CCC(C)C)c2ccccc21",
    "CC50": "3.47 µM"
  },
  {
    "chemical-string": "CC(C)CCn1c(Cn2c(=O)n(C(C)C)c3ccccc32)nc2cc(CN(C)C)ccc21",
    "CC50": "5.65 µM"
  },
  {
    "chemical-string": "CC(C)CCn1c(Cn2c(=O)n(C(C)C)c3ccccc32)nc2cc(CNS(C)(=O)=O)ccc21",
    "CC50": "30.8 µM"
  },
  {
    "chemical-string": "CC(C)CCn1c(Cn2c(=O)n(CC(=O)OC(C)(C)C)c3ccccc32)nc2cc(/C(N)=N\\O)ccc21",
    "CC50": "19.8 µM"
  },
  {
    "chemical-string": "CC(C)CCn1c(Cn2c(=O)n(C(C)C)c3ccccc32)nc2ccc(C(N)=O)cc21",
    "CC50": "49.9 µM"
  }
]

====

# key: entry, value: CC50
- assay-explanation: Cytotoxicity against human HEp2 cells
- Assay type: cell-based, HEp-2

[
  {
    "chemical-string": "CC(C)CCn1c(Cn2c(=O)n(C(C)C)c3ccccc32)nc2ccc(C(=O)O)cc21",
    "CC50": "125 µM"
  },
  {
    "chemical-string": "CC(C)CCn1c(Cn2c(=O)n(C)c3ccccc32)nc2cc(-c3nnn(C)n3)ccc21",
    "CC50": "2.97 µM"
  },
  {
    "chemical-string": "CNCc1ccc2nc(Cn3c(=O)n(C(C)C)c4ccccc43)n(CCC(C)C)c2c1",
    "CC50": "4.81 µM"
  }
]

====

- assay-explanation: Cytotoxicity against human HEp2 cells
- Type: cell-based, HEp-2

[
  {
    "chemical-string": "CC(C)CCn1c(Cn2c(=O)n(C(C)C)c3ccccc32)nc2c(CO)cccc21",
    "unit-tag": "µM",
    "CC50": 22
  },
  {
    "chemical-string": "CC(=O)NCc1ccc2c(c1)nc(Cn1c(=O)n(C(C)C)c3ccccc31)n2CCC(C)C",
    "unit-tag": "µM",
    "CC50": 178
  },
  {
    "chemical-string": "CC(C)CCn1c(Cn2c(=O)n(C(C)C)c3ccccc32)nc2cc(CO)ccc21",
    "unit-tag": "µM",
    "CC50": 31.6
  },
  {
    "chemical-string": "CC(C)CCn1c(Cn2c(=O)n(C(C)C)c3ccccc32)nc2c(CCCN)cccc21",
    "unit-tag": "µM",
    "CC50": 2.34
  },
  {
    "chemical-string": "C=C(C)n1c(=O)n(Cc2nc3cc(C(C)=O)ccc3n2CCC(C)C)c2ccccc21",
    "unit-tag": "µM",
    "CC50": 0.74
  },
  {
    "chemical-string": "CC(C)CCn1c(Cn2c(=O)n(C(C)C)c3ccccc32)nc2cc(Br)ccc21",
    "unit-tag": "µM",
    "CC50": 18.1
  },
  {
    "chemical-string": "CC(C)CCn1c(Cn2c(=O)n(C(C)C)c3ccccc32)nc2cc(C(=O)O)ccc21",
    "unit-tag": "µM",
    "CC50": 17.3
  },
  {
    "chemical-string": "CC(C)CCn1c(Cn2c(=O)n(C(C)C)c3ccccc32)nc2cc(C(=O)N(C)C)ccc21",
    "unit-tag": "µM",
    "CC50": 25.6
  },
  {
    "chemical-string": "CC(C)CCn1c(Cn2c(=O)n(C(C)C)c3ccccc32)nc2cc(-c3ncon3)ccc21",
    "unit-tag": "µM",
    "CC50": 223
  },
  {
    "chemical-string": "CC(C)CCn1c(Cn2c(=O)n(C(C)C)c3ccccc32)nc2ccc(CCN)cc21",
    "unit-tag": "µM",
    "CC50": 57
  },
  {
    "chemical-string": "CC(C)CCn1c(Cn2c(=O)n(C(C)C)c3ccccc32)nc2ccc(CN)cc21",
    "unit-tag": "µM",
    "CC50": 28.1
  },
  {
    "chemical-string": "COC(=O)c1cccc2c1nc(Cn1c(=O)n(C(C)C)c3ccccc31)n2CCC(C)C",
    "unit-tag": "µM",
    "CC50": 49.2
  },
  {
    "chemical-string": "CC(C)CCn1c(Cn2c(=O)n(C(C)C)c3ccccc32)nc2ccc(CO)cc21",
    "unit-tag": "µM",
    "CC50": 81.6
  },
  {
    "chemical-string": "C=C(C)n1c(=O)n(Cc2nc3cc(C(=O)O)ccc3n2CCC(C)C)c2ccccc21",
    "unit-tag": "µM",
    "CC50": 30
  },
  {
    "chemical-string": "CC(C)CCn1c(Cn2c(=O)n(C(C)C)c3ccccc32)nc2cc(CF)ccc21",
    "unit-tag": "µM",
    "CC50": 37.3
  },
  {
    "chemical-string": "CC(C)CCn1c(Cn2c(=O)n(C(C)C)c3ccccc32)nc2ccc(C#N)cc21",
    "unit-tag": "µM",
    "CC50": 10
  },
  {
    "chemical-string": "CCc1ccc2c(c1)nc(Cn1c(=O)n(C(C)C)c3ccccc31)n2CCC(C)C",
    "unit-tag": "µM",
    "CC50": 18.5
  },
  {
    "chemical-string": "CC(C)CCn1c(Cn2c(=O)n(C(C)C)c3ccccc32)nc2cc(N)ccc21",
    "unit-tag": "µM",
    "CC50": 32.2
  },
  {
    "chemical-string": "CC(C)CCn1c(Cn2c(=O)n(C(C)C)c3ccccc32)nc2cccc(CO)c21",
    "unit-tag": "µM",
    "CC50": 246
  },
  {
    "chemical-string": "CC(C)CCn1c(Cn2c(=O)n(C(C)C)c3ccccc32)nc2c(CCC#N)cccc21",
    "unit-tag": "µM",
    "CC50": 2.24
  }
]
